- System: Rattus norvegicus
- test description: Blood pressure rating in spontaneously hypertensive rats, 10 hr after peroral administration of 50 mg/kg of compound
- Format: functional
- conditions: route oral
measure: Activity rating

# mol smiles, observed
rows = [
    ("COCc1ncc2cc(-c3c(Cl)cccc3Cl)c(N)nc2n1", 1),
    ("Cc1ncc2cc(-c3ccco3)c(N)nc2n1", 0),
    ("Nc1nc2nc(C3CC3)ncc2cc1-c1ccccc1Br", 0),
    ("Cc1ccccc1-c1cc2cnc(C3CC3)nc2nc1N", 0),
    ("Nc1nc2nc(/C=C/c3ccccc3)ncc2cc1-c1c(Cl)cccc1Cl", 1),
    ("Cc1ncc2cc(-c3ccc([N+](=O)[O-])cc3)c(N)nc2n1", 0),
    ("CCOc1nc(C)nc2nc(N)c(-c3c(Cl)cccc3Cl)cc12", 0),
    ("Nc1nc2nc(C3CC3)ncc2cc1-c1c(Cl)cccc1Cl", 0),
]

---

- Tested on: Rattus norvegicus
- test description: Effect on heart rate of spontaneously hypertensive rats, 10 hr after peroral administration at 50 mg/kg
- Assay type: functional
- conditions: route oral
measure: Activity rating

# mol smiles, target or test system, observed
rows = [
    ("Cc1ncc2cc(-c3ccccc3I)c(N)nc2n1", "Rattus norvegicus", 0),
    ("CCc1ncc2cc(-c3c(Cl)cccc3Cl)c(N)nc2n1", "Rattus norvegicus", 1),
    ("Cc1ncc2cc(-c3ccccc3C)c(N)nc2n1", "Rattus norvegicus", 1),
    ("Cc1nc(N)c2cc(-c3c(Cl)cccc3Cl)c(N)nc2n1", "Rattus norvegicus", 0),
    ("CCc1ncc2cc(-c3ccccc3Cl)c(N)nc2n1", "Rattus norvegicus", 0),
    ("Nc1nc2ncncc2cc1-c1c(Cl)cccc1Cl", "Rattus norvegicus", 0),
    ("Nc1nc2ncncc2cc1-c1ccccc1", "Rattus norvegicus", 0),
    ("CCc1ccccc1-c1cc2cncnc2nc1N", "Rattus norvegicus", 0),
    ("Cc1ncc2cc(-c3cccc(C)c3C)c(N)nc2n1", "Rattus norvegicus", 0),
    ("Cc1ncc2cc(-c3ccccc3Br)c(N)nc2n1", "Rattus norvegicus", 1),
    ("Cc1cc(C)c(-c2cc3cnc(C)nc3nc2N)c(C)c1", "Rattus norvegicus", 0),
    ("Cc1ncc2cc(-c3c(C)cccc3Br)c(N)nc2n1", "Rattus norvegicus", 1),
    ("Cc1ncc2cc(-c3c(Br)cccc3Br)c(N)nc2n1", "Rattus norvegicus", 2),
    ("Cc1ncc2cc(-c3ccc(Cl)c(Cl)c3)c(N)nc2n1", "Rattus norvegicus", 0),
    ("Cc1ncc2cc(-c3cccc(Br)c3C)c(N)nc2n1", "Rattus norvegicus", 0),
    ("Cc1cccc(C)c1-c1cc2cncnc2nc1N", "Rattus norvegicus", 0),
    ("Cc1ncc2cc(-c3ccc(Cl)cc3Cl)c(N)nc2n1", "Rattus norvegicus", 1),
    ("Cc1ncc2cc(-c3cccnc3)c(N)nc2n1", "Rattus norvegicus", 0),
]

---

Form field: Activity rating (one value per entry).
- Tested on: Rattus norvegicus
- test description: Effect on heart rate of spontaneously hypertensive rats, 10 hr after peroral administration at 50 mg/kg
- Assay type: functional
- conditions: route oral

# mol smiles, Activity rating
records = [
    ("Cc1nc(C)c2cc(-c3c(Cl)cccc3Cl)c(N)nc2n1", 3),
    ("Nc1nc2nc(CO)ncc2cc1-c1c(Cl)cccc1Cl", 1),
    ("Nc1nc2ncncc2cc1-c1ccccc1I", 0),
    ("Cc1ncc2cc(-c3ccccc3F)c(N)nc2n1", 0),
    ("Cc1ncc2cc(-c3c(C)cccc3C)c(N)nc2n1", 0),
    ("Cc1ncc2cc(-c3ccccc3C(F)(F)F)c(N)nc2n1", 0),
    ("Nc1nc2ncncc2cc1-c1ccccc1Br", 1),
    ("Nc1nc2ncncc2cc1-c1ccccc1C(F)(F)F", 0),
    ("Nc1nc2ncncc2cc1-c1cccnc1", 0),
    ("Cc1cccc(Cl)c1-c1cc2cncnc2nc1N", 2),
    ("Cc1ncc2cc(-c3ccc(Cl)cc3)c(N)nc2n1", 0),
    ("Cc1ccccc1-c1cc2cncnc2nc1N", 1),
    ("CCc1ncc2cc(-c3ccccc3C)c(N)nc2n1", 0),
    ("Cc1ncc2cc(-c3c(Cl)cccc3Br)c(N)nc2n1", 2),
    ("Cc1ncc2cc(-c3c(C)cccc3Cl)c(N)nc2n1", 2),
    ("Cc1ncnc2nc(N)c(-c3c(Cl)cccc3Cl)cc12", 2),
    ("Nc1nc2ncncc2cc1-c1c(Cl)cccc1Br", 2),
    ("Cc1nc(C)c2cc(-c3ccccc3C)c(N)nc2n1", 0),
    ("Nc1nc2nc(C(F)(F)F)ncc2cc1-c1c(Cl)cccc1Cl", 0),
    ("Nc1ncc2cc(-c3c(Cl)cccc3Cl)c(N)nc2n1", 1),
    ("Cc1cccc(-c2cc3cncnc3nc2N)c1C", 0),
    ("CCc1ccccc1-c1cc2cnc(C)nc2nc1N", 0),
    ("Cc1ncc2cc(-c3c(Cl)cccc3Cl)c(N)nc2n1", 3),
    ("Cc1ncc2cc(-c3ccccc3Cl)c(N)nc2n1", 1),
    ("Nc1nc2ncncc2cc1-c1ccccc1Cl", 0),
    ("Cc1ncc2cc(-c3cccc(Cl)c3Cl)c(N)nc2n1", 0),
    ("Cc1ncc2cc(-c3ccccc3)c(N)nc2n1", 0),
]
